Entry source: patent US20070031493A1

Experiment: Water solubility
Type: physicochemical
Details: water
PROPERTY_LABEL: solubility

compound="CC(C)n1c(/C=C/C(O)CC(O)CC(=O)O)c(-c2ccc(F)cc2)c2ccccc21 (stereo not shown) [fluvastatin sodium]" reported_result="> 50 mg/mL"
